Target: SALL4 ZFC4 G921D (HT-SELEX) (Mus musculus, UniProt Q8BX22 870-940, G921D)
Sequence: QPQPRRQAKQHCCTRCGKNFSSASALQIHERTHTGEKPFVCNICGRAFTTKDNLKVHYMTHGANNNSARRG
Test: HT-SELEX; high values mean tight binding
Conditions: protein: recombinant; vector His6-GST; dsDNA, one strand shown
endpoint_label: binding signal (fold-change vs cycle 0)

> print(dat)
    polymer.sequence   value
 1            TTAGAA    1.75
 2            CTTGCA   0.856
 3            CAATTA    1.71
 4            CGGACG   0.264
 5            ATATAA    2.24
 6            ATCACC    1.06
 7            TAGGCA   0.751
 8            AGCTGG   0.522
 9            GTGGCA   0.424
10            CGTACC   0.564
11            CCTGTC   0.619
12            CGCGTA    0.34
13            CATTGA    1.35
14            CTCGGA   0.589
15            CCGCGC  0.0941
16            AGTCGG   0.499
17            TCGCGA   0.374
18            CCGGGA   0.341
19            AGGCAC   0.486
20            CAGAAG    0.93
21            AACGTT    1.24
22            GCGTAA   0.651
23            ACTCTC    1.07
24            TCATGA    1.49
25            GCTTAA    1.12
26            ATAACA    1.83
27            AATAAT    2.27
28            AGCTAG   0.874
29            GGGGGA   0.439
30            CAGCTC   0.526
31            CATGAC       1
32            CCTGGC   0.281
33            AGAGAT    1.53
34            TATAAA    2.14
35            ATGTCG    0.73
36            GCAGGC    0.24
37            CGGCAA   0.324
38            ATCACA    1.43
39            AAGACG   0.815
40            ATCAGC   0.836
41            GCCCCA   0.275
42            ATACAC    1.35
43            TATTGA    1.83
44            GATGGA    0.97
45            CGACTA   0.777
46            GGTAAA    1.23
47            AATCCG   0.798
48            AATAAC    1.79
49            CGAATC   0.827
50            AGATCT    1.47
51            AGCGGC   0.177
52            GAACTC    1.04
53            GGAGCC   0.319
